Test: Viability of fibroblast cells, MTT assay
Assay type: cell-based, Human
Conditions: human, primary dermal fibroblast cells; 1 µmol/L, 24 h, MTT; ± 2; read-out: Viability of fibroblast cells
Residues, ends and D or L forms follow the SMILES beside them.
Examples of compounds with documented viability at 24 h, 1 µmol/L follow.

{"Compound": "C[C@@H](O)[C@H](NC(=O)[C@H](CCCCN)NC(=O)CCCCC1CCSS1)C(=O)N[C@H](C(=O)N[C@@H](CCCCN)C(=O)N[C@@H](CO)C(=O)O)[C@@H](C)O (mixture of isomers) [Peptide 3, Lip-Lys-Thr-Thr-Lys-Ser-OH]", "viability at 24 h, 1 µmol/L": "94%"}
{"Compound": "CCCCCCCCCCCCCCCC(=O)N[C@@H](CCCNC(=N)N)C(=O)N[C@H](C(=O)N[C@H](C(=O)N[C@@H](CCCCN)C(=O)N[C@@H](CO)C(N)=O)[C@@H](C)O)[C@@H](C)O [Peptide 32, Pal-Arg-Thr-Thr-Lys-Ser- NH2] (HELM PEPTIDE1{[CCCCCCCCCCCCCCCC(=O)[*:2]].R.T.T.K.S.[am]}$$$$V2.0)", "viability at 24 h, 1 µmol/L": "104%"}
